Test system: Rattus norvegicus
Experiment: Distribution of radioactivity was determined in spleen at 48 hr after intravenous administration of 1,3-Disubstituted Triacylglycerols in rats
Assay type: ADME, organism-based
Conditions: in vivo
Property Label: Distribution of radioactivity

Observed Distribution of radioactivity on Rattus norvegicus, entry "CCCCCCCC/C=C/CCCCCCCC(=O)OC(COC(=O)CCCCCCc1c(I)cc(I)c(N)c1I)COC(=O)CCCCCCc1c(I)cc(I)c(N)c1I" , equals 0.3 % dose per organ

Observed Distribution of radioactivity on Rattus norvegicus, entry "CCCCCCCC/C=C/CCCCCCCC(=O)OC(COC(=O)CCCCc1c(I)cc(I)c(N)c1I)COC(=O)CCCCc1c(I)cc(I)c(N)c1I" , equals 3.7 % dose per organ

Observed Distribution of radioactivity on Rattus norvegicus, entry "CCCCCCCC/C=C/CCCCCCCC(=O)OC(COC(=O)Cc1c(I)cc(I)c(N)c1I)COC(=O)Cc1c(I)cc(I)c(N)c1I" , equals 16.6 % dose per organ

Observed Distribution of radioactivity on Rattus norvegicus, entry CCCCCCCC/C=C/CCCCCCCC(=O)OC(COC(=O)C(CC)Cc1c(I)cc(I)c(N)c1I)COC(=O)C(CC)Cc1c(I)cc(I)c(N)c1I (stereo not given) , equals 9.8 % dose per organ

Observed Distribution of radioactivity on Rattus norvegicus, entry "CCCCCCCC/C=C/CCCCCCCC(=O)OC(COC(=O)CCCCCc1c(I)cc(I)c(N)c1I)COC(=O)CCCCCc1c(I)cc(I)c(N)c1I" , equals 3.1 % dose per organ

---

Tested on: Rattus norvegicus
Assay: Distribution of radioactivity was determined in kidney at 3h after intravenous administration of [125I]-labeled 2-oleoglycerol 1,3-Bis-[omega-(3-amino-2,4,6-triiodophenyl)alkanoates] in rats
Format: ADME, organism-based
Details: in vivo
Property Label: Distribution of radioactivity
Number first, unit second: that is the form wanted.

Observed Distribution of radioactivity on Rattus norvegicus, entry "CCCCCCCC/C=C/CCCCCCCC(=O)OC(COC(=O)CCCCCCc1c(I)cc(I)c(N)c1I)COC(=O)CCCCCCc1c(I)cc(I)c(N)c1I" , equals 0.18 % dose/g

Observed Distribution of radioactivity on Rattus norvegicus, entry "CCCCCCCC/C=C/CCCCCCCC(=O)OC(COC(=O)Cc1c(I)cc(I)c(N)c1I)COC(=O)Cc1c(I)cc(I)c(N)c1I" , equals 0.04 % dose/g

Observed Distribution of radioactivity on Rattus norvegicus, entry "CCCCCCCC/C=C/CCCCCCCC(=O)OC(COC(=O)CCCCc1c(I)cc(I)c(N)c1I)COC(=O)CCCCc1c(I)cc(I)c(N)c1I" , equals 0.09 % dose/g

Observed Distribution of radioactivity on Rattus norvegicus, entry CCCCCCCC/C=C/CCCCCCCC(=O)OC(COC(=O)C(CC)Cc1c(I)cc(I)c(N)c1I)COC(=O)C(CC)Cc1c(I)cc(I)c(N)c1I (stereo not given) , equals 0.03 % dose/g

Observed Distribution of radioactivity on Rattus norvegicus, entry "CCCCCCCC/C=C/CCCCCCCC(=O)OC(COC(=O)CCCCCc1c(I)cc(I)c(N)c1I)COC(=O)CCCCCc1c(I)cc(I)c(N)c1I" , equals 0.21 % dose/g

---

Tested on: Rattus norvegicus
Assay: Distribution of radioactivity was determined in heart at 30 min after intravenous administration of [125I]-labeled 2-oleoglycerol 1,3-Bis-[omega-(3-amino-2,4,6-triiodophenyl)alkanoates] in rats
Type: ADME, organism-based
Settings: in vivo, 0.5 h
Property Label: Distribution of radioactivity (% dose/g)
Unit % dose/g implied. Number only.

Consider "CCCCCCCC/C=C/CCCCCCCC(=O)OC(COC(=O)CCCCCc1c(I)cc(I)c(N)c1I)COC(=O)CCCCCc1c(I)cc(I)c(N)c1I" . Its measured Distribution of radioactivity is 0.23

Consider "CCCCCCCC/C=C/CCCCCCCC(=O)OC(COC(=O)CCCCCCc1c(I)cc(I)c(N)c1I)COC(=O)CCCCCCc1c(I)cc(I)c(N)c1I" . Its measured Distribution of radioactivity is 0.55

Consider "CCCCCCCC/C=C/CCCCCCCC(=O)OC(COC(=O)CCCCc1c(I)cc(I)c(N)c1I)COC(=O)CCCCc1c(I)cc(I)c(N)c1I" . Its measured Distribution of radioactivity is 0.59

Consider "CCCCCCCC/C=C/CCCCCCCC(=O)OC(COC(=O)Cc1c(I)cc(I)c(N)c1I)COC(=O)Cc1c(I)cc(I)c(N)c1I" . Its measured Distribution of radioactivity is 0.36

Consider CCCCCCCC/C=C/CCCCCCCC(=O)OC(COC(=O)C(CC)Cc1c(I)cc(I)c(N)c1I)COC(=O)C(CC)Cc1c(I)cc(I)c(N)c1I (stereo not given) . Its measured Distribution of radioactivity is 0.84

---

Tested on: Rattus norvegicus
Assay: Distribution of radioactivity was determined in blood at 24 hr after intravenous administration of 1,3-Disubstituted Triacylglycerols in rats
Assay type: ADME, organism-based
Conditions: in vivo
I would appreciate it if you labelled entries Fulfilled when Distribution of radioactivity is 1 % dose/organ or higher, otherwise Not fulfilled.

q: Answer whether Distribution of radioactivity of "CCCCCCCC/C=C/CCCCCCCC(=O)OC(COC(=O)CCCCc1c(I)cc(I)c(N)c1I)COC(=O)CCCCc1c(I)cc(I)c(N)c1I" is greater than or equal to 1 % dose/organ.
a: Fulfilled

q: Answer whether Distribution of radioactivity of "CCCCCCCC/C=C/CCCCCCCC(=O)OC(COC(=O)CCc1c(I)cc(I)c(N)c1I)COC(=O)CCc1c(I)cc(I)c(N)c1I" is greater than or equal to 1 % dose/organ.
a: Not fulfilled

q: Answer whether Distribution of radioactivity of "CCCCCCCC/C=C/CCCCCCCC(=O)OC(COC(=O)Cc1c(I)cc(I)c(N)c1I)COC(=O)Cc1c(I)cc(I)c(N)c1I" is greater than or equal to 1 % dose/organ.
a: Not fulfilled

q: Answer whether Distribution of radioactivity of CCCCCCCC/C=C/CCCCCCCC(=O)OC(COC(=O)C(CC)Cc1c(I)cc(I)c(N)c1I)COC(=O)C(CC)Cc1c(I)cc(I)c(N)c1I (configuration not stated) is greater than or equal to 1 % dose/organ.
a: Not fulfilled

q: Answer whether Distribution of radioactivity of "CCCCCCCC/C=C/CCCCCCCC(=O)OC(COC(=O)CCCCCCc1c(I)cc(I)c(N)c1I)COC(=O)CCCCCCc1c(I)cc(I)c(N)c1I" is greater than or equal to 1 % dose/organ.
a: Fulfilled

q: Answer whether Distribution of radioactivity of "CCCCCCCC/C=C/CCCCCCCC(=O)OC(COC(=O)CCCc1c(I)cc(I)c(N)c1I)COC(=O)CCCc1c(I)cc(I)c(N)c1I" is greater than or equal to 1 % dose/organ.
a: Fulfilled

q: Answer whether Distribution of radioactivity of "CCCCCCCC/C=C/CCCCCCCC(=O)OC(COC(=O)CCCCCc1c(I)cc(I)c(N)c1I)COC(=O)CCCCCc1c(I)cc(I)c(N)c1I" is greater than or equal to 1 % dose/organ.
a: Fulfilled

---

Test system: Rattus norvegicus
Experiment: Distribution of radioactivity was determined in liver at 24 hr after intravenous administration of [125I]-labeled 2-oleoglycerol 1,3-Bis-[omega-(3-amino-2,4,6-triiodophenyl)alkanoates] in rats
Assay type: ADME, organism-based
Settings: in vivo
Give Distribution of radioactivity for every item shown.
Unit % dose/g implied. Number only.

Consider "CCCCCCCC/C=C/CCCCCCCC(=O)OC(COC(=O)CCCCCCc1c(I)cc(I)c(N)c1I)COC(=O)CCCCCCc1c(I)cc(I)c(N)c1I" . Its measured Distribution of radioactivity is 1.1

Consider "CCCCCCCC/C=C/CCCCCCCC(=O)OC(COC(=O)Cc1c(I)cc(I)c(N)c1I)COC(=O)Cc1c(I)cc(I)c(N)c1I" . Its measured Distribution of radioactivity is 9.09

Consider "CCCCCCCC/C=C/CCCCCCCC(=O)OC(COC(=O)CCCCc1c(I)cc(I)c(N)c1I)COC(=O)CCCCc1c(I)cc(I)c(N)c1I" . Its measured Distribution of radioactivity is 4.53

Consider CCCCCCCC/C=C/CCCCCCCC(=O)OC(COC(=O)C(CC)Cc1c(I)cc(I)c(N)c1I)COC(=O)C(CC)Cc1c(I)cc(I)c(N)c1I (stereo not given) . Its measured Distribution of radioactivity is 10.2

Consider "CCCCCCCC/C=C/CCCCCCCC(=O)OC(COC(=O)CCCCCc1c(I)cc(I)c(N)c1I)COC(=O)CCCCCc1c(I)cc(I)c(N)c1I" . Its measured Distribution of radioactivity is 4.2

---

Give Distribution of radioactivity for every item shown.
Test system: Rattus norvegicus
Test: Distribution of radioactivity was determined in lung at 30 min after intravenous administration of [125I]-labeled 2-oleoglycerol 1,3-Bis-[omega-(3-amino-2,4,6-triiodophenyl)alkanoates] in rats
Assay type: ADME, organism-based
Settings: in vivo, 0.5 h
Number first, unit second: that is the form wanted.

Consider "CCCCCCCC/C=C/CCCCCCCC(=O)OC(COC(=O)CCCCCc1c(I)cc(I)c(N)c1I)COC(=O)CCCCCc1c(I)cc(I)c(N)c1I" . Its measured Distribution of radioactivity is 0.26 % dose/g

Consider CCCCCCCC/C=C/CCCCCCCC(=O)OC(COC(=O)C(CC)Cc1c(I)cc(I)c(N)c1I)COC(=O)C(CC)Cc1c(I)cc(I)c(N)c1I (stereo not given) . Its measured Distribution of radioactivity is 0.34 % dose/g

Consider "CCCCCCCC/C=C/CCCCCCCC(=O)OC(COC(=O)CCCCCCc1c(I)cc(I)c(N)c1I)COC(=O)CCCCCCc1c(I)cc(I)c(N)c1I" . Its measured Distribution of radioactivity is 0.66 % dose/g

Consider "CCCCCCCC/C=C/CCCCCCCC(=O)OC(COC(=O)Cc1c(I)cc(I)c(N)c1I)COC(=O)Cc1c(I)cc(I)c(N)c1I" . Its measured Distribution of radioactivity is 0.72 % dose/g

Consider "CCCCCCCC/C=C/CCCCCCCC(=O)OC(COC(=O)CCCCc1c(I)cc(I)c(N)c1I)COC(=O)CCCCc1c(I)cc(I)c(N)c1I" . Its measured Distribution of radioactivity is 0.54 % dose/g
